These data points were gathered from the supplement of paper PMC10681739.

Biological target: ETS1 (UniProt P14921)
Sequence: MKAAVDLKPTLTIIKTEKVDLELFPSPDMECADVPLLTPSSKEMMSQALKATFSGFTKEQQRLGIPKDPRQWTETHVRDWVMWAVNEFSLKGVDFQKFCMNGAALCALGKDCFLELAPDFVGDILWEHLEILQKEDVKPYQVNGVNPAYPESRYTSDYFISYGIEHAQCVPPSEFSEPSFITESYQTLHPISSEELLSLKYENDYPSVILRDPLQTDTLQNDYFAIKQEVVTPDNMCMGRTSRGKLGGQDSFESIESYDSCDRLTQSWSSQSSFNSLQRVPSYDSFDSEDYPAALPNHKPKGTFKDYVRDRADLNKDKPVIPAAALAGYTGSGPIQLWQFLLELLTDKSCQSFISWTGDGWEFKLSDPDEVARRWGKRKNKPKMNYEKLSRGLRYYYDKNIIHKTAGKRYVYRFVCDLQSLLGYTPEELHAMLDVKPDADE
Assay: ETS1 binding intensity (PBM fluorescence), ETS1 alone (arbitrary fluorescence units); higher = stronger binding
Conditions: ETS1 concentration 1 nM; RUNX1 concentration 0 nM
propertyName: ETS1 binding intensity
API note: the answer field is a bare number with no unit suffix.

Example entries and their recorded answers appear below.
| chainSequence | propertyName | numericResult |
| --- | --- | --- |
| GGAGCAACCGGCCGGATACCGCCACAGCCCTGGCAG | ETS1 binding intensity | 1720 |
| TCGCATAGCCGGGAAGCGCGGTGGAGGTTGTTGGGG | ETS1 binding intensity | 428 |
| CGAAGCCAGGAAATAAGGATAAACCACAGAAAGAAA | ETS1 binding intensity | 1060 |
| CGGGACTTCCTGTCTTCCCTGTTGCGGAGCTCTGAA | ETS1 binding intensity | 1720 |
| GTAAGTAGGCCAGGAAGTGGTCACTGCAGCATGTGA | ETS1 binding intensity | 3740 |
| CCTTGCTACAGGATGTTTTGACCACGAGCCCAGGAG | ETS1 binding intensity | 1440 |
| TATGGCGGGCAGGAAGTGCGGGTGCGCGCCTGCGCA | ETS1 binding intensity | 4640 |
| TTGCTTTATCACTTCCTGTTTGAGGTTTATATCCAT | ETS1 binding intensity | 5630 |

Lab note: next sequence to report on.
Looking for the measured ETS1 binding intensity of CATGGTGGTGACGCAGGATGTGGTGGTGGTGTAGAA , can you help? 2600

###

Target: ETS1 (UniProt P14921)
Sequence: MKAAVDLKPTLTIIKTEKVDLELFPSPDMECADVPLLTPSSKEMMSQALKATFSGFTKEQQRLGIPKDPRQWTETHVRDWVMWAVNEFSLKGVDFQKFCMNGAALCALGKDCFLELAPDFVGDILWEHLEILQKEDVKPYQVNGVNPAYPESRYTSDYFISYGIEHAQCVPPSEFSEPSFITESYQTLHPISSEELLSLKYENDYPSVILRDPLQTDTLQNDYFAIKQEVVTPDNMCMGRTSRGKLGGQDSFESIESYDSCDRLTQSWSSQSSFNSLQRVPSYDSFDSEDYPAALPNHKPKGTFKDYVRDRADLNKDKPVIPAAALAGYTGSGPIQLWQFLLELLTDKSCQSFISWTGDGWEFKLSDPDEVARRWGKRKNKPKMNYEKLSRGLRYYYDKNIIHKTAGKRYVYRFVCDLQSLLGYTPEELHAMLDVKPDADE
Experiment: ETS1 binding intensity (PBM fluorescence), ETS1 alone (arbitrary fluorescence units); higher = stronger binding
Conditions: ETS1 concentration 1 nM; RUNX1 concentration 0 nM
// label = fulfilled if ETS1 binding intensity is not less than 1000, otherwise not fulfilled

Please review the following examples before continuing.
| chainSequence | assignedCategory |
| --- | --- |
| GCCAGGAGGACTTCCGGGTGGGTGTGGTATCTGCGA | fulfilled |
| ACAACTTCCTGTGGGATTTTTGGTGTCTGCGGCTCA | not fulfilled |
| CTCTTCAGCAGGAAATGATGTGGTAAAACAGGGTTA | fulfilled |
| GCGCGGCGCGACCGGACGCTGCGGGCGGGGAAGAGG | fulfilled |
| CAAACAGGTTCCGGCCGGACTACAGCGCCCACAATG | not fulfilled |
| GAAATCCATCACGGATGTGGGCTTTTTGCTCTCATT | fulfilled |
| GGGCTCCCAGAAGGATGTGGTTTCTGAGTACGTTGG | not fulfilled |
| ACCCACTTCCTGTTAGAGCATCTTTGCAACCACAGG | fulfilled |
| GCACCGTGGCACTTCCGCGAGCGCCGCAGGCCCTGC | not fulfilled |
| ACCTGTAGGCGGAAGTCTGTGGCTTTATTTACACAG | fulfilled |

Reported ETS1 binding intensity at or above 1000? CTCTCACTTCCCGTGTGAGAAAAACCACAGAAAAGC not fulfilled

One more sequence: GACATCCAGGAAGTGGTGAGAAACCACGTGTGTGTT fulfilled

One more sequence: AGACCCGGAAATGGTGGGTGTTTCTTGCAACCACGG fulfilled

One more sequence: TCCGGAAGTGGCACTGATGGGCGCCTGCGGCGGGGG fulfilled

###

Biological target: ETS1 (UniProt P14921)
Sequence: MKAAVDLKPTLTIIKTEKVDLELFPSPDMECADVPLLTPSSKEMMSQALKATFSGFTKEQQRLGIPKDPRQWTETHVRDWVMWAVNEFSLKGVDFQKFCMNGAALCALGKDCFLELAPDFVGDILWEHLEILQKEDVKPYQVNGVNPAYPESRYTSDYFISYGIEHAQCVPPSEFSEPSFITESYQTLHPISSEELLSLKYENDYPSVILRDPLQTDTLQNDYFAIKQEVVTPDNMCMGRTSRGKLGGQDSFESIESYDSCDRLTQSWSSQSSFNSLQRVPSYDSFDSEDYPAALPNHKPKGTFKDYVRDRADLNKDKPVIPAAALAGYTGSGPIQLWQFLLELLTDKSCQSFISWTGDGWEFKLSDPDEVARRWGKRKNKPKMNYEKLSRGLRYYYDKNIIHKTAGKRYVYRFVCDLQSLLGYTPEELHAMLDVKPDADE
Assay: ETS1 binding intensity (PBM fluorescence) in presence of RUNX1, normalised to ETS1-only experiment (arbitrary fluorescence units); higher = stronger binding
Details: ETS1 concentration 1 nM; RUNX1 concentration 25 nM
// label = Condition met if ETS1 binding intensity is not less than 1000, otherwise Condition not met

| chainSequence | assignedCategory |
| --- | --- |
| AGGAGTGAGGAAGTGAGGCTGGCCTTGTGGGTGTGG | Condition not met |
| GAAGCGCTGGGCGGAAGTGGCTGTGGCTTTGCCCTT | Condition met |
| GGGCAGGAAGGAAGAGGGCTCCTCCCCACAAGCTCT | Condition not met |
| GACTCCCTCAGCGGATGCGGGTGCTGCTGCTGCTGC | Condition met |
| GGCCAGGCAGGAAGTCCCGCGCCACAAGCGGCCGTC | Condition met |

In the following, a different sequence is considered.
Reported ETS1 binding intensity at or above 1000? CCCGCTTCCGCGTTTTACTCGGTGCCCGCAGCGCCG Condition not met

###

target: RUNX1 (UniProt Q01196); test: RUNX1 binding intensity (PBM fluorescence), RUNX1 alone (arbitrary fluorescence units); higher = stronger binding; settings: RUNX1 concentration 2 nM; ETS1 concentration 0 nM
Sequence (Q01196 whole entry): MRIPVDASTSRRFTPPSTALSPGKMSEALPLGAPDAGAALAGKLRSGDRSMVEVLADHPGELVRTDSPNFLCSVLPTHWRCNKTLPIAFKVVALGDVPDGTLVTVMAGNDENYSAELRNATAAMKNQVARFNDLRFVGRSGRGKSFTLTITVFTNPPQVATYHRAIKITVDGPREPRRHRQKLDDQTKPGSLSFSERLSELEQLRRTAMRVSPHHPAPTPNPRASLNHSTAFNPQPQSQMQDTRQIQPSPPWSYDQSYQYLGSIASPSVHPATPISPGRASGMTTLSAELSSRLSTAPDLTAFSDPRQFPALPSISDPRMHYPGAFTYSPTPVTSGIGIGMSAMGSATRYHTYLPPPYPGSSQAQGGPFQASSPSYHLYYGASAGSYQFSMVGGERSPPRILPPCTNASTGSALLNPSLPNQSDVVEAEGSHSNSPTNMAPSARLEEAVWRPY
propertyName: RUNX1 binding intensity
API note: the answer field is a bare number with no unit suffix.

| chainSequence | RUNX1 binding intensity |
| --- | --- |
| GACTCCCTCAGCGGATGCGGGTGCTGCTGCTGCTGC | 743 |
| GCTGTCCGTTTCCGAGATGTTAATGCGGGGTCTTGC | 866 |
| CCTCACAGGGACTTCCTTCCCCGCGGTTCAGGAATC | 866 |
| GGCTGTGCTTCAGGATGTGGTAATGCTTGGGAGGCG | 780 |
| AACTAGAGCGTCATTTCCTGTGGGTACAAGTCCAGT | 842 |

Looking for the measured RUNX1 binding intensity of GAGGACGCGGAAGTCCTTCTTGCGGGGCGGAGCTAG , can you help? 664

One more sequence: CACCTCAGCTTCCTGTGTAGCTGGGACCACAGGCAT 827

One more sequence: CTCCTTCCTGATCGGGCAGGAACTAACCACAGGAGG 825

One more sequence: GTCAGGGGAACAGGATGTGGGTGGGAGCCAGCCCCA 729

###

molecular target: RUNX1 (UniProt Q01196); assay: RUNX1 binding intensity (PBM fluorescence) in presence of ETS1, normalised to RUNX1-only experiment (arbitrary fluorescence units); higher = stronger binding; settings: RUNX1 concentration 2 nM; ETS1 concentration 25 nM
Overview of reported RUNX1 binding intensity across a group of sequences:
API note: the answer field is a bare number with no unit suffix.

Example entries and their recorded answers appear below.
| chainSequence | numericResult |
| --- | --- |
| CACTGATTAAGAGGAAGTGTGTGTGGTTATTACCGT | 1170 |
| GCAGAAGAGGAAATGGTTTGCCTGTGCGGTGGGGGA | 999 |

Looking for the measured RUNX1 binding intensity of CGTACGCGCACTTCCGGTCTTTGTGGCTTGCAGCTC , can you help? 2610

One more sequence: GCGAGACGCGGAAGAGGCTTGCGGTTGACCAAAGAA 4310

One more sequence: TTTTTAAGGTCAGGATGTGGGCACATCTAAGGGGCA 1370

One more sequence: CAGATCCGGCGTGGACGAAGCTCGGGAACCACAACA 1150

One more sequence: GCGCAAGGATCCGGTTTGTTGTGGTGTGGGGAGGGG 1070

One more sequence: GACTCTTCCGGCCCAGAGCTTTCGGAGTGCGGTTGC 2130

One more sequence: TCCCTCCTTCCGCTCTGGTTTTGTGGTTGCTTGCTG 3330

One more sequence: GGATGACATCCGGCACCAACTTAACCACTAATCTCA 2410

One more sequence: TAAATCGGAAACTCGCCGCTCAGCCCGCAGCCGCCG 808

One more sequence: CTCACAGAGCAAGTAGGATGTGGTTTCCAGGGGCTG 1180

One more sequence: TTTGTTGTTCCGGGTGCGAGGCGGCCGCAGCTTCCA 1180

One more sequence: GGAAAAGGAAGTGGCTTTGACTTGCGGGCAGGGAGA 2560

One more sequence: TCAATGACAGGAAGTTTTTAAACCACATACGGCTAA 1810

One more sequence: CCTGTTTCCTGCCATCTGCCCTTCCTTTGTGGTCAA 6290

One more sequence: CTAAGCAGAGGCCGGAAGCGGTGGTTTTTAGCGGCT 2090

One more sequence: TCAGGGGTGGGAGGAAGTGGTTAGGATCAGCCTGGG 2680

One more sequence: GCTGCCACTTCCCTTGCTTATTTCATGTGGTTTGGA 1980

One more sequence: GACCTGCCTTCCGGCCTCCGTCACATGACCGCACAG 2000

One more sequence: AGGACGGGCGGAAGTGGCTGCGGTGGATGGTGGGAG 3180

One more sequence: ACTCACTTCCGTTTAGCTTATCAACCACCAAGAGAC 3210
